Tested on: HCV 1b_Huh-Luc/Neo-ET cell line persistently expressing a bicistronic genotype 1b replicon in Huh 7 cells
method: HCV replicon assay (luciferase readout, 72 h)
Assay type: cell-based, HCV genotype 1b
assay conditions: Hepatitis C virus, Huh-7, 72 h, read-out: Inhibition of HCV genotype 1b
pEC50: −log10 of the molar value.
assay endpoint: pEC50

Sample records with pEC50:
# molecule, pEC50
rows = [
    ("COC(=O)N[C@H](C(=O)N1CCC[C@H]1c1ncc(-c2ccc(C#Cc3ccc(-c4cnc([C@@H]5CCCN5C(=O)[C@H](NC(=O)N5CC[C@H](O)C5)c5ccccc5)[nH]4)cc3)cc2)[nH]1)C(C)C [Compound 974]", "> 9.00"),
    ("COC(=O)N[C@@H](C(=O)N1CCC[C@H]1c1ncc(-c2ccc(C#Cc3ccc(-c4cnc([C@@H]5CCCN5C(=O)[C@H](NS(C)(=O)=O)c5ccccc5)[nH]4)cc3)cc2)[nH]1)c1ccccc1 [Compound 225]", "> 9.00"),
    ("CC(C)[C@H](NC(=O)N1CC[C@H](O)C1)C(=O)N1CCC[C@H]1c1ncc(-c2ccc(C#Cc3ccc(-c4cnc([C@@H]5CCCN5C(=O)[C@@H](NC(=O)N5CC[C@H](O)C5)C(C)C)[nH]4)cc3)cc2)[nH]1 [Compound 988]", "6.00 to 8.00"),
    ("CC(C)[C@H](NC(=O)[C@H](NC(=O)OC(C)(C)C)c1ccccc1)c1ncc(-c2ccc(C#Cc3ccc(-c4cnc([C@@H]5CCCN5C(=O)[C@H](NC(=O)OC(C)(C)C)c5ccccc5)[nH]4)cc3)cc2)[nH]1 [Compound 281]", "8.00 to 9.00"),
]

Which pEC50 is reported for this molecule? O=C(N[C@@H](C(=O)N1CCC[C@H]1c1ncc(-c2ccc(C#Cc3ccc(-c4cnc([C@@H]5CCCN5C(=O)[C@H](NC(=O)N5CC[C@@H](O)C5)c5ccccc5)[nH]4)cc3)cc2)[nH]1)c1ccccc1)N1CC[C@@H](O)C1 [Compound 252]
> 9.00

Which pEC50 is reported for this molecule? CN(C)[C@@H](C(=O)N1CCC[C@H]1c1ncc(-c2ccc(C#Cc3cnc([C@@H]4CCCN4C(=O)[C@H](NC(=O)C4CC4)c4ccccc4)[nH]3)cc2)[nH]1)c1ccccc1 [Compound 131]
> 9.00

Which pEC50 is reported for this molecule? COC(=O)N[C@H](C(=O)N1CCC[C@H]1c1ncc(C#Cc2ccc(-c3ccc4nc([C@@H]5CCCN5C(=O)[C@@H](NC(=O)OC)C(C)C)[nH]c4c3)cc2)[nH]1)C(C)C [Compound 1084]
> 9.00

Which pEC50 is reported for this molecule? COC(=O)N[C@H](C(=O)N[C@@H](C)c1nc2ccc(C#Cc3ccc(-c4cnc([C@@H]5CCCN5C(=O)[C@@H](NC(=O)OC)C(C)C)[nH]4)cc3)cc2[nH]1)C(C)C [Compound 867]
> 9.00

Which pEC50 is reported for this molecule? C[C@@H](NC(=O)[C@@H]1CCCN1C(=O)[C@H](NC(=O)OC(C)(C)C)c1ccccc1)c1ccc(C#Cc2ccc(-c3cnc([C@@H]4CCCN4C(=O)[C@H](NC(=O)OC(C)(C)C)c4ccccc4)[nH]3)cc2)cc1 [Compound 167]
8.00 to 9.00
